// provenance: ChEMBL document CHEMBL1201862

Test system: OVCAR-5
assay details: NCI tumour cell line growth inhibition, 48 h
Active and inactive are the calls of the source. Rule as the data show it: active = GI50 up to about 1.1 µM and inactive = higher.
Listed below: GI50 values for each entry.

{"columns": ["compound", "target or test system", "GI50"],
 "data": [
  ["CC1(C)OC(=O)C(=Cc2ccc([N+](=O)[O-])s2)C(=O)O1", "OVCAR-5", "16.6 µM (inactive)"],
  ["CN(CCCn1ccnc1[N+](=O)[O-])CCCn1ccnc1[N+](=O)[O-]", "OVCAR-5", "> 100 µM (inactive)"],
  ["CCOC(=O)CP(=S)(S)c1ccccc1 (stereo unspecified)", "OVCAR-5", "> 100 µM (inactive)"],
  ["CCCNC(=S)N/N=C(\\C)c1ccc(S(=O)(=O)N(C)c2ccccc2)cc1", "OVCAR-5", "> 67.6 µM (inactive)"],
  ["O=c1[nH]nc(Cc2ccccc2)n1CCO", "OVCAR-5", "> 100 µM (inactive)"],
  ["O=C1OCN(c2ccccc2)C12CCN(Cc1ccccc1)CC2", "OVCAR-5", "> 100 µM (inactive)"],
  ["O=[N+]([O-])c1cccc(/N=C2\\c3ccccc3CN2c2cccc([N+](=O)[O-])c2)c1", "OVCAR-5", "> 100 µM (inactive)"],
  ["COc1cc(/C=C\\c2ccccc2)cc(OC)c1OC", "OVCAR-5", "10.3 µM (inactive)"],
  ["CCC1=CC2CC(C(=O)OC)C1(N(C)C)C2=O (stereo unspecified)", "OVCAR-5", "> 100 µM (inactive)"],
  ["CC(c1ccc(Br)cc1)C(C(=O)O)C(=O)O (stereo unspecified)", "OVCAR-5", "> 100 µM (inactive)"],
  ["Cc1c(C(C)C)cc(OCCO)cc1C(C)C", "OVCAR-5", "66.4 µM (inactive)"],
  ["Fc1ccc(C(OCCN2CCC3CCC(C2)N3CCCc2ccccc2)c2ccc(F)cc2)cc1 (stereo unspecified)", "OVCAR-5", "6.71 µM (inactive)"],
  ["Cn1nc2ccccc2cc1=O", "OVCAR-5", "> 100 µM (inactive)"],
  ["C1=CCC[C@@H]2CN3CCCC/C=C\\CCCC[C@H]4C[C@H](CN(CCCCCCCC1)C4)[C@H]2CC3", "OVCAR-5", "10.6 µM (inactive)"],
  ["CC(C)/C(Cl)=N\\OC(=O)Nc1ccc(F)cc1", "OVCAR-5", "14.6 µM (inactive)"],
  ["COc1ccc(C2SC(=N)Nc3c2c(C)nn3C(=O)c2ccncc2)cc1OC (stereo unspecified)", "OVCAR-5", "> 10 µM (inactive)"]
]}
